Hello, the source for this data is PubChem BioAssay AID1902, in case you need it.

- TEST_TARGET: S. pyogenes SKKanGAS, kanamycin survival, BacTiterGlo, 6 h
- ASSAY_REMARKS: S. pyogenes SKKanGAS kanamycin growth inhibitors – SKKanGAS strain, luminescence, dose confirmation, streptokinase promoter inhibitor project, dose response (AID 1902);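 further: lower survival reflects blocked streptokinase promoter driving kanamycin resistance gene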
Active and inactive are the calls of the source.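 How the source made its calls: active means EC50 no more than a set limit of log units above the highest dose; inactive means the rest.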
Valid outcomes are listed here; reply with one: 1 for active, 0 for inactive

What classification did COc1ccc(CC2=CC(=O)c3ccccc3C2=O)cc1 end up with in this test?
1

Could you kindly confirm the outcome this assay logged for COc1cc([N+](=O)[O-])cc(/C=N/NC(=O)c2cncc(Br)c2)c1O ?
1

Identify the outcome logged in this assay for the compound shown: COc1ccc(C(=O)NC2CCCCCC2)cc1S(=O)(=O)N1CCOCC1
0

Name the outcome recorded for O=C(NCc1ccco1)c1cc2ccc(O)cc2oc1=O in the assay.
1

Name the outcome recorded for Cc1ccc(NC(=S)c2nc3ccccc3[nH]2)cc1 in the assay.
1

How was OC1(C#Cc2c(-c3ccsc3)oc3ccc(N4CCOCC4)cc23)CCCCC1 classified in this test?
1
